# Study system: TLR7 (Homo sapiens, UniProt Q9NYK1)
# Construct: Human peripheral blood mononuclear cells (PBMCs) consist of lymphocytes, monocytes and dendritic cells that express TLR7, TLR8 and TLR9; endogenous in cells
# Sequence (Q9NYK1 27-1049): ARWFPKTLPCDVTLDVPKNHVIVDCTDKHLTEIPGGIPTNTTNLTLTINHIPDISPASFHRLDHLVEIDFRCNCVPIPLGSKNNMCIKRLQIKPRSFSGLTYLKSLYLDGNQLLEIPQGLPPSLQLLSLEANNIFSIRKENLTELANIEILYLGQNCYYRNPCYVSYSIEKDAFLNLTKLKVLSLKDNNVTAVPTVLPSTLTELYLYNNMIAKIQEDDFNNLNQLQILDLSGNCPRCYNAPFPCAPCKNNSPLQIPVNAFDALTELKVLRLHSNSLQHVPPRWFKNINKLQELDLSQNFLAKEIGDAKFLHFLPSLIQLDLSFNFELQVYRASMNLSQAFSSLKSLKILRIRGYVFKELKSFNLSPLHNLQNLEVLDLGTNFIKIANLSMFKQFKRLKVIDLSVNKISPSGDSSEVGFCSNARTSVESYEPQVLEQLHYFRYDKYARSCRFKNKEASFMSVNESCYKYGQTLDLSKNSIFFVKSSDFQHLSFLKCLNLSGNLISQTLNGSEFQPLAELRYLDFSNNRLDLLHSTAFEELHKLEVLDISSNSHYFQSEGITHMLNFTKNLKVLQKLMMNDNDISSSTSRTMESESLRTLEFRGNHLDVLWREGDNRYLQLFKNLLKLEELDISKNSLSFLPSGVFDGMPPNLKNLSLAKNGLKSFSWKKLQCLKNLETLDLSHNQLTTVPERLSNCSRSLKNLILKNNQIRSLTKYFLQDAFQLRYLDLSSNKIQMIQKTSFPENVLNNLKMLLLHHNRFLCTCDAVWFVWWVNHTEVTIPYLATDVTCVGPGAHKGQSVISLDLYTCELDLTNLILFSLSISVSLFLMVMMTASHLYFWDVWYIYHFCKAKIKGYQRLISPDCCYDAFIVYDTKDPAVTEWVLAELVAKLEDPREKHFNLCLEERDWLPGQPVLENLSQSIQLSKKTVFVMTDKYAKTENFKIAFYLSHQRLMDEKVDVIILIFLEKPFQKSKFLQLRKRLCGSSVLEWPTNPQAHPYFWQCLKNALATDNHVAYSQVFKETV
# Assay notes: TLR7 human PBMC cell-based assay (antagonist, GS-986 stimulated cytokine release)
# Stated conditions: human PBMCs; TLR7 agonist GS-986 400 nM, 6 hours; cytokines (IL-6 and IFNα) in supernatant; read-out: TLR-7 EC50
Property measured: EC50 (nM)
Report as a plain number; the unit nM is understood.

Worked examples, 5 compounds total:
Compound: CCc1c(-c2cc(C)c3ncnn3c2)[nH]c2cc(-c3nc4ccc(N5CCNCC5)cc4[nH]3)sc12 [Example 245]
EC50, nM: 337

Compound: Cc1cc(-c2[nH]c3cc(-c4ccc5c(c4)CNCC5)sc3c2C(C)C)cn2ncnc12 [Example 211]
EC50, nM: 1.9

Compound: Cc1cc(-c2[nH]c3cc(C4CCC5(CC4)CN(C(=O)[C@H]4CCCN4C)C5)sc3c2C(C)C)cn2ncnc12 [Example 207]
EC50, nM: 0.7

Compound: Cc1c(-c2[nH]c3cc(-c4cnn(C5CCNCC5)c4)sc3c2C(C)C)cn2ncnc2c1C [Example 229]
EC50, nM: 1.1

Compound: Cc1cc(-c2[nH]c3cc(C4CCN(C(=O)CN5CCCC5)CC4)sc3c2C(C)C)cn2ncnc12 [Example 196]
EC50, nM: 1.3

Lab note: need EC50 with TLR7 (Homo sapiens, UniProt Q9NYK1) for entry Cc1cc(-c2[nH]c3cc(C4CCCNC4)sc3c2C(C)C)cn2ncnc12 (stereo not drawn) [Example 155] , please look it up.
4.8

Give recorded EC50 with TLR7 (Homo sapiens, UniProt Q9NYK1) for the following compound: Cc1cc(-c2[nH]c3cc(C4C5CCC4CN(CC(N)=O)C5)sc3c2C(C)C)cn2ncnc12 (stereo not drawn) [Example 309]
0.95

So what EC50 did Cc1cc(-c2[nH]c3cc(C(=O)N4C[C@H]5NCCO[C@@H]5C4)sc3c2C(C)C)cn2ncnc12 [Example 131] get with TLR7 (Homo sapiens, UniProt Q9NYK1)?
21

Please state recorded EC50 (tested on TLR7 (Homo sapiens, UniProt Q9NYK1)) of Cc1cc(-c2[nH]c3cc(C4CCC5(CC4)CN(C(=O)CN(C)C)C5)sc3c2C(C)C)cn2ncnc12 [Example 185]
0.2

---

# Study system: TLR8 (Homo sapiens, UniProt Q9NR97)
# Construct: Human peripheral blood mononuclear cells (PBMCs) consist of lymphocytes, monocytes and dendritic cells that express TLR7, TLR8 and TLR9; endogenous in cells
# Sequence (Q9NR97 27-1041): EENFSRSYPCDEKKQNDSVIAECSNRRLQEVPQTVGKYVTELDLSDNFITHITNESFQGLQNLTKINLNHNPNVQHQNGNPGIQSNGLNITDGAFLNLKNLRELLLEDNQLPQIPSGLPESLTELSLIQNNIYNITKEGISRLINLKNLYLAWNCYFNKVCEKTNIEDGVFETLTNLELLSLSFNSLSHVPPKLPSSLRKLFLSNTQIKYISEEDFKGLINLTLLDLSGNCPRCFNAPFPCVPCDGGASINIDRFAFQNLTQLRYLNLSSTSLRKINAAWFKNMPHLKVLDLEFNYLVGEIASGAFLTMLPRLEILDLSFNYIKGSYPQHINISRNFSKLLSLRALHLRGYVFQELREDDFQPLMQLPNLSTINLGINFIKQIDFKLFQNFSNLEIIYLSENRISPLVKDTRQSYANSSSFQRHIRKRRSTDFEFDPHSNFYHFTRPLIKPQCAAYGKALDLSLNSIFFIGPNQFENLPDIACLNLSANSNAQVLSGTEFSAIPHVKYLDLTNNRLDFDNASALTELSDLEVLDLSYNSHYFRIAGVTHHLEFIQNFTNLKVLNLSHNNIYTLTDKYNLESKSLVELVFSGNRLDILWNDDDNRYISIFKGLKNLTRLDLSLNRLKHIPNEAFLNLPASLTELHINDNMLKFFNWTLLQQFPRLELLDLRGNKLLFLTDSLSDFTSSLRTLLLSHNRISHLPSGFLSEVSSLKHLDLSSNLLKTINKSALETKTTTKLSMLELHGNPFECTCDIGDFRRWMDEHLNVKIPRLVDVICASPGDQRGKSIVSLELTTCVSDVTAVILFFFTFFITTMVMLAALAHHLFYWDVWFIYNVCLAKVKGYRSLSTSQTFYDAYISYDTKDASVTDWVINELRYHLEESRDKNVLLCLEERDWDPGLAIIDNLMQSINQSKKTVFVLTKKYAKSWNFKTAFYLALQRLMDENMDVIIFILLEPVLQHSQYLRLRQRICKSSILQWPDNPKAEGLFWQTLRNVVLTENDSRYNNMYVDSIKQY
# Assay notes: TLR8 human PBMC cell-based assay (antagonist, Compound A stimulated cytokine release)
# Stated conditions: human PBMCs; TLR8 agonist Compound A 800 nM, 6 hours; cytokines (TNFa and IL 12p40) in supernatant; read-out: TLR-8 EC50
# Description: Human peripheral blood mononuclear cells (PBMCs) consist of lymphocytes, monocytes and dendritic cells that express TLR7, TLR8 and TLR9. These cells respond to TLR7, TLR8 and TLR9 ligand stimulation and produce cytokines and chemokines in vitro and in vivo. Human PBMCs are therefore suitable to be used in a cell-based assay to assess the in vitro potency of a TLR 7, 8, and/or 9 antagonist. […]
EC50 listing for selected compounds.
# value in nM; strip the unit string

Record smiles: Cc1cc(-c2[nH]c3cc(C4CCN(C(=O)[C@H]5COCCN5)CC4)sc3c2C(C)C)cn2ncnc12
Output unit: nM
EC50: 7.93

Record smiles: Cc1c(-c2[nH]c3cc(C(=O)N(C)[C@@H]4CNC[C@H](C(F)(F)F)C4)sc3c2C(C)C)cn2ncnc2c1C
Output unit: nM
EC50: 9.7

Reported EC50 for Cc1cc(-c2[nH]c3cc(C4CCC5(CC4)CNC5)sc3c2C(C)C)cn2ncnc12 : what is it?
7.1
